Target Or Test System: human dopamine transporter (Homo sapiens, UniProt Q01959)
Construct: expressed in transfected cells; host or cells: CHO-K1
Sequence (Q01959 whole entry): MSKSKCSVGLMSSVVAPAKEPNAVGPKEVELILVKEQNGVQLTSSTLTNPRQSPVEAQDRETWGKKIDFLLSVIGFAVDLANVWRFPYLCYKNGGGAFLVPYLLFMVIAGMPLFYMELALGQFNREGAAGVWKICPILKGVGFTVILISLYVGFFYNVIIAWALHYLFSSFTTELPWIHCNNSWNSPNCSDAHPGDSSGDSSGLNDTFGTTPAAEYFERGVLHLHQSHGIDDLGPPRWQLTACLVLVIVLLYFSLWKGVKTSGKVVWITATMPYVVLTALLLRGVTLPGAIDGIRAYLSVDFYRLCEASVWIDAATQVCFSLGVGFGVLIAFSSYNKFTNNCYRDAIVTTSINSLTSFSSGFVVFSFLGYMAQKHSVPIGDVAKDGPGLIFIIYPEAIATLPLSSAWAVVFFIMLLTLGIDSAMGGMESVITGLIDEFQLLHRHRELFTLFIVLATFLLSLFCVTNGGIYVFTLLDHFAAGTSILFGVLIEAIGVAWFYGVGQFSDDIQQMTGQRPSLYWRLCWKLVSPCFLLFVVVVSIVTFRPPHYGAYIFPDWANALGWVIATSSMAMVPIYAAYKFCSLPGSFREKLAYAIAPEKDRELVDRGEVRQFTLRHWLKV
Assay Comment: Binding to human dopamine transporter ([125I]RTI-55)
Assay Setup: human; Example 101 table; read-out: IC50 (nM) DAT

{"Compound": "CCN1CCCC1CNc1nc(C2(c3ccc(Cl)cc3)CCC2)cs1 (stereo not drawn)", "IC50": "> 1000 nM"}
{"Compound": "Clc1ccc(C2(c3csc(N4CCNCC4)n3)CCOCC2)cc1", "IC50": "> 1000 nM"}
{"Compound": "CN1CCN(c2nc(CCc3ccc(Cl)cc3)cs2)CC1", "IC50": "> 1000 nM"}
{"Compound": "CN1CCCC1CCNc1nc(C2(c3ccc(Cl)cc3)CCC2)cs1 (stereo not drawn)", "IC50": "< 500 nM"}
{"Compound": "CN1CCN(c2nc(C3(c4csc5ccc(Cl)cc45)CCOCC3)cs2)CC1", "IC50": "> 1000 nM"}
{"Compound": "CN1CCC(c2nc(C3(c4ccc(Cl)cc4)CCCCC3)cs2)CC1", "IC50": "< 100 nM"}
{"Compound": "CN1CCN(c2nc(C3(c4ccccc4F)CCCCC3)cs2)CC1", "IC50": "> 1000 nM"}
{"Compound": "COc1ccc(C2(c3csc(N4CCN(C)CC4)n3)CCOCC2)cc1OC", "IC50": "> 1000 nM"}
{"Compound": "Clc1ccc(C2(c3csc(NCCN4CCOCC4)n3)CCC2)cc1", "IC50": "> 1000 nM"}
{"Compound": "CN1CCN(c2nc(C3(c4ccc(Cl)cc4)CCCC3)cs2)CC1", "IC50": "< 100 nM"}
{"Compound": "Clc1ccc(C2(c3csc(NCCN4CCCCC4)n3)CCC2)cc1", "IC50": "< 500 nM"}
{"Compound": "CN1CCN(c2nc(C3(c4cccc(Cl)c4)CCOCC3)cs2)CC1", "IC50": "> 1000 nM"}
{"Compound": "CN1CCN(c2nc(C3(c4ccccc4F)CCCC3)cs2)CC1", "IC50": "> 1000 nM"}
{"Compound": "CN1CCN(c2nc(C3(c4ccc(Cl)cc4)CCC3)cs2)CC1", "IC50": "< 500 nM"}
{"Compound": "CN1CCN(c2nc(C3(c4ccc(Cl)cc4)CCC3)no2)CC1", "IC50": "> 1000 nM"}

====

Reported IC50 is given for each of the following compounds.
Target Or Test System: human dopamine D3 receptor (Homo sapiens)
Construct: expressed in transfected cells; host or cells: CHO
Sequence (P35462 whole entry): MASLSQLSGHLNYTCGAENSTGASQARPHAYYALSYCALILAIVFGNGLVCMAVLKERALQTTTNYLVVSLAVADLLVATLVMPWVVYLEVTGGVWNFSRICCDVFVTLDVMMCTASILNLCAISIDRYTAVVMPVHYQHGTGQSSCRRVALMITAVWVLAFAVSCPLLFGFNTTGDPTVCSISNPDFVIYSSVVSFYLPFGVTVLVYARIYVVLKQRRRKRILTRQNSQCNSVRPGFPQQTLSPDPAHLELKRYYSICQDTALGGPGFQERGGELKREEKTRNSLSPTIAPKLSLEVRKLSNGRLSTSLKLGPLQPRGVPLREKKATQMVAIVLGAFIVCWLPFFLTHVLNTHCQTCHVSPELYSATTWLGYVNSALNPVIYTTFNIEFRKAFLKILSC
Assay Comment: Radioligand binding assay, human dopamine D3 receptors ([3H]Spiperone)
Assay Setup: Example 20 table; read-out: IC50 (nM) Against Human D3 Receptors
Description: The assay for binding to human D3 receptors was conducted according to Sokoloff, P. et al. Nature 1990, 347, 146. CHO cells stably transfected with a plasmid encoding the human dopamine D3 receptor were used to prepare membranes in modified Tris-HCl pH 7.4 buffer using standard techniques. […] Non-specific binding was estimated in the presence of 25 μM S-(−)-sulpiride. […]

{"Compound": "CN1CCN(c2nc(C3(c4csc5ccc(Cl)cc45)CCOCC3)cs2)CC1 [Compound 36]", "IC50": "< 1000 nM"}
{"Compound": "CN1CCC(c2nc(C3(c4ccc(Cl)cc4)CCCCC3)cs2)CC1 [Compound 35]", "IC50": "< 100 nM"}
{"Compound": "CN1CCC(c2nc(C3(c4ccc(Cl)cc4)CCC3)cs2)CC1 [Compound 31]", "IC50": "< 1000 nM"}
{"Compound": "CN1CCN(c2nc(C3(c4ccccc4F)CCCC3)cs2)CC1 [Compound 93]", "IC50": "< 1000 nM"}
{"Compound": "Clc1ccc(C2(c3csc(NCCN4CCOCC4)n3)CCC2)cc1 [Compound 22]", "IC50": "> 1000 nM"}
{"Compound": "CN1CCCC1CCNc1nc(C2(c3ccc(Cl)cc3)CCC2)cs1 (stereo not drawn) [Compound 24]", "IC50": "< 1000 nM"}
{"Compound": "CN1CCN(c2nc(C3(c4ccc(Cl)cc4)CCC3)no2)CC1 [Compound 28]", "IC50": "> 1000 nM"}
{"Compound": "Clc1ccc(C2(c3csc(N4CCNCC4)n3)CCOCC2)cc1 [Compound 37]", "IC50": "< 1000 nM"}
{"Compound": "Clc1ccc(C2(c3csc(C4CCNCC4)n3)CCC2)cc1 [Compound 30]", "IC50": "> 1000 nM"}
